# Measured Target: EGFR (Homo sapiens, UniProt P00533)
# Construct: endogenous in cells; host or cells: A431 cells (lysate, captured with SUMO1 anti-EGFR antibody)
# Sequence (P00533 25-1210): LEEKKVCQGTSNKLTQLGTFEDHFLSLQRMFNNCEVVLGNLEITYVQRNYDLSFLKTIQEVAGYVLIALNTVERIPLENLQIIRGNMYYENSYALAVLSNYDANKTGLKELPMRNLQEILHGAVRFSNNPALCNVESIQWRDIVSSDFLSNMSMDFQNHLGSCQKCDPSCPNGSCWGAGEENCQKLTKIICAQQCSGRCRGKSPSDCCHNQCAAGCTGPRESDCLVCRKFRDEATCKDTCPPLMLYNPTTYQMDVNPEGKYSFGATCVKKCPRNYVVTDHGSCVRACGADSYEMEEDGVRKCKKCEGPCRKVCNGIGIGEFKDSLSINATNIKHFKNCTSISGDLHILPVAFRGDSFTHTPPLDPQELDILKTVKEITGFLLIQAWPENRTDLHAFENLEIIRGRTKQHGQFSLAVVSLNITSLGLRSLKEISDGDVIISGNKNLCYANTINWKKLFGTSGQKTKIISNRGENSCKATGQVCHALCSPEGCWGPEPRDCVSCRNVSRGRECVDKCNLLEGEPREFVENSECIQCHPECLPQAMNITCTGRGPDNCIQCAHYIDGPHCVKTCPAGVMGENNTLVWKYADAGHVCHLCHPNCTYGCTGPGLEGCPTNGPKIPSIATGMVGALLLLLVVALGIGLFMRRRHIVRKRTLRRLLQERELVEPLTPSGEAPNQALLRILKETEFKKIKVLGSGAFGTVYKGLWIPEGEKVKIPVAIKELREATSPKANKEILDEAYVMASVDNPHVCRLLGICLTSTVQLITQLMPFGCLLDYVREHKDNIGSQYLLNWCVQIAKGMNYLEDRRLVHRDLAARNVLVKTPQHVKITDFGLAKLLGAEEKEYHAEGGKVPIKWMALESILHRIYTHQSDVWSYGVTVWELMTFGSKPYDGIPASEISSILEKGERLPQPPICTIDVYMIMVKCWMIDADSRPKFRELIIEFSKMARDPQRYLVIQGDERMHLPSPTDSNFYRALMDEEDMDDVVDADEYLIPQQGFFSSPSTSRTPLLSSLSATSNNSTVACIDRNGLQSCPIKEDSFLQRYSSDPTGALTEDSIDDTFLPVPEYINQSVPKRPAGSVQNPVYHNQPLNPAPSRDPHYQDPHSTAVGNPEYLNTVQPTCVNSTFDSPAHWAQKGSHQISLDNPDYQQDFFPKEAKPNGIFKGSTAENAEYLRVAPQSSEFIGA
# Method: Biochemical EGFR Assay
# Design: concentration or dose not given beside the values
Attribute: Biochem EGFR % Inhibition (P.167)
Answer format: numeric, % implied, no suffix.

The following compounds have reported results that may help.
[
  {
    "Compound": "CC(C)(C)c1ccc(C=C2C(=O)Nc3c(Br)cc(Br)cc32)cc1 [10734/A10]",
    "Units Label": "%",
    "Biochem EGFR % Inhibition (P.167)": 27.8
  },
  {
    "Compound": "O=C1Nc2ccc(I)cc2C1=Cc1ccccc1F [10736/B08]",
    "Units Label": "%",
    "Biochem EGFR % Inhibition (P.167)": 8.4
  },
  {
    "Compound": "Cc1cccc(C=C2C(=O)Nc3ccc(S(=O)(=O)Nc4ccc(C(F)(F)F)cc4)cc32)c1 [10736/E04]",
    "Units Label": "%",
    "Biochem EGFR % Inhibition (P.167)": "−17.2"
  },
  {
    "Compound": "CNS(=O)(=O)c1ccc2c(c1)C(=Cc1ccccc1C)C(=O)N2 [10735/D02]",
    "Units Label": "%",
    "Biochem EGFR % Inhibition (P.167)": 20.3
  }
]

Field: next compound
stdin: Could you share what Biochem EGFR % Inhibition (P.167) was measured for COc1c(Cl)cc(C=C2C(=O)Nc3c(Br)cc(Br)c(C)c32)cc1C(C)(C)C [10732/H09] , tested on EGFR (Homo sapiens, UniProt P00533)?
stdout: −7.4
